- Test system: Liver microsomes
- testMethodNotes: Intrinsic clearance in rat liver microsomes
- Assay type: ADME, Microsome
readoutLabel: CLint (mL/min/kg)

Examples with answers:
{"smilesRecord": "CN(C(=O)Nc1cnc(-c2ccccc2)cn1)[C@H]1CC[C@@]2(CC1)Cc1ccccc1C(=O)O2", "experimentalTarget": "Liver microsomes", "measureUnit": "mL/min/kg", "CLint": 333}
{"smilesRecord": "CN(C(=O)Nc1cnc(-c2ccccc2)cn1)[C@H]1CC[C@@]2(CC1)OC(=O)c1ccncc12", "experimentalTarget": "Liver microsomes", "measureUnit": "mL/min/kg", "CLint": 12}
{"smilesRecord": "CN(C(=O)Nc1ccn(-c2ccccc2F)n1)[C@H]1CC[C@]2(CC1)OC(=O)c1ccncc12", "experimentalTarget": "Liver microsomes", "measureUnit": "mL/min/kg", "CLint": 28}
{"smilesRecord": "CN(C(=O)Nc1ccn(-c2ccccc2F)n1)[C@H]1CC[C@@]2(CC1)Cc1ccccc1C(=O)O2", "experimentalTarget": "Liver microsomes", "measureUnit": "mL/min/kg", "CLint": 290}

1: CN(C(=O)Nc1cnc(-c2ccccc2)cn1)[C@H]1CC[C@@]2(CC1)Cc1cnccc1C(=O)O2
2: CN(C(=O)Nc1ccn(-c2ccccc2F)n1)[C@H]1CC[C@]2(CC1)OC(=O)c1ccccc12
# returns the entry with the larger CLint; inputs 1 and 2 Answer = label. 2

* * *

- testMethodNotes: Oral bioavailability in rat
- Type: ADME, organism-based
- conditions: in vivo
readoutLabel: bioavailability (%)
A number alone suffices; assume %.

// Input: CN(C(=O)Nc1cnc(-c2ccccc2)cn1)[C@H]1CC[C@]2(CC1)OC(=O)c1ccncc12 . Output its bioavailability only. 80

* * *

- testMethodNotes: Half life in rat
- Assay type: ADME, organism-based
- conditions: in vivo
readoutLabel: half-life (h)
Write down the numeric answer in h and omit the unit.

Specify half-life for CN(C(=O)Nc1cnc(-c2ccccc2)cn1)[C@H]1CC[C@]2(CC1)OC(=O)c1ccncc12 and stop. 2

* * *

- System: Liver microsomes
- testMethodNotes: Intrinsic clearance in human liver microsomes
- Format: ADME, Microsome
readoutLabel: CLint (mL/min/kg)

Worked set:
{"smilesRecord": "CN(C(=O)Nc1ccn(-c2ccccc2F)n1)[C@H]1CC[C@]2(CC1)OC(=O)c1ccccc12", "CLint (mL/min/kg)": 24}
{"smilesRecord": "CN(C(=O)Nc1cnc(-c2ccccc2)cn1)[C@H]1CC[C@@]2(CC1)Cc1ccccc1C(=O)O2", "CLint (mL/min/kg)": 59}
{"smilesRecord": "CN(C(=O)Nc1ccn(-c2ccccc2F)n1)[C@H]1CC[C@]2(CC1)COc1ccccc12", "CLint (mL/min/kg)": 68}

A: CN(C(=O)Nc1ccn(-c2ccccc2F)n1)[C@H]1CC[C@]2(CC1)OCc1ccccc12
B: CN(C(=O)Nc1ccn(-c2ccccc2F)n1)[C@H]1CC[C@@]2(CC1)Cc1ccccc1C(=O)O2
Identify the entry with the larger CLint. Options: A and B Provide the label of your selected option as the answer. A
(A: 67 mL/min/kg, B: 28 mL/min/kg)

* * *

- experimentalTarget: Neuropeptide Y receptor type 5 (Homo sapiens)
- Sequence (Q15761 whole entry): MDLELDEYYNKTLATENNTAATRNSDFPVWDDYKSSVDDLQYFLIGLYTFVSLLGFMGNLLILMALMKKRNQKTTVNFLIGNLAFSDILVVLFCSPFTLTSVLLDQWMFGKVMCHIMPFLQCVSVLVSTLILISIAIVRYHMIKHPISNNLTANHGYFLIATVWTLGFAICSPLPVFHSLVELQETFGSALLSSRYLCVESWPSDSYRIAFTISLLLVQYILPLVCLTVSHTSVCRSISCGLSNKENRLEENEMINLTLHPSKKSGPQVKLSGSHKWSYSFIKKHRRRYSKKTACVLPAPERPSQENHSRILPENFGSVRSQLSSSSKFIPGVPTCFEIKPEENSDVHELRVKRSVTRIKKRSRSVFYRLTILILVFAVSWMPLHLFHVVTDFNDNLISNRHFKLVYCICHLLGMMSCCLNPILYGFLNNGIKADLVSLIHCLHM
- testMethodNotes: Displacement of [125I]PPY from human recombinant NPYY5 receptor expressed in insect Sf9 membranes
readoutLabel: Ki (nM)

Solved cases below.
{"molecule": "CN(C(=O)Nc1cnc(-c2ccccc2)cn1)[C@H]1CC[C@@]2(CC1)Cc1cnccc1C(=O)O2", "measureUnit": "nM", "numericReadout": 82}
{"molecule": "CN(C(=O)Nc1cnc(-c2ccccc2)cn1)[C@H]1CC[C@@]2(CC1)Cc1ccccc1C(=O)O2", "measureUnit": "nM", "numericReadout": 4.6}

1: O=C(Nc1ccn(-c2ccccc2F)n1)NC1CCC2(CC1)OC(=O)c1ccncc12 (mixture of isomers)
2: CN(C(=O)Nc1ccn(-c2ccccc2F)n1)[C@H]1CC[C@@]2(CC1)OC(=O)c1ccccc12
Smaller Ki value, 1 vs 2 ? Return value: the label identifying the chosen record. 2
(2: 22 nM, 1: 849 nM)

Source: ChEMBL document CHEMBL2016500
